experiment: chemical genetic growth profiling, strain panel (AID 1159580);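 further: tested at 20 µM; growth read once vehicle control cultures reached saturation at 30 °C; 1 = growth at the plate median or of vehicle wells; lower values mean less growth of the strain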; conditions: S. cerevisiae deletion strains, growth OD, locus YJL095W, strain BCK1 (second series), hits give low values
About 2,000 (36%) of roughly 5,500 compounds were called active. Not shown: some 18% with an inconclusive outcome. The list shows a part of the results.
measurement-type: normalized growth
Would you mind answering with just the numeric figure?

Sample answers from the record:
>>> df
                                   compound   measurement_type  experimental_value
0                        O=C(O)CNCP(=O)(O)O  normalized growth                1.01
1            Oc1ccc(/C=C/c2cc(O)cc(O)c2)cc1  normalized growth               0.987
2                     OC/C=C/c1ccc(O)c(O)c1  normalized growth                   1
3  COc1cc(C)c2c(c1C=O)Oc1c(c(C)c(O)c3c1C(O)OC3=O)OC2=O (stereo not drawn)  normalized growth                1.02
4                              COS(C)(=O)=O  normalized growth               0.995
5  O=C(O)CCCCC1SCC2NC(=O)NC21 (stereo not drawn)  normalized growth               0.998

## Input Suppose we examine the compound C[C@]12CCC3c4ccc(OS(=O)(=O)O)cc4CCC3C1CCC2=O (stereo partly drawn) ; what normalized growth value has been reported?
## Output 0.977

## Input Suppose we examine the compound C#C[C@]1(O)CCC2C3CCc4cc(O)ccc4C3CC[C@@]21C (stereo partly drawn) ; what normalized growth value has been reported?
## Output 1

* * *

experiment: chemical genetic growth profiling, strain panel (AID 1159580);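 further: tested at 20 µM; growth read once vehicle control cultures reached saturation at 30 °C; 1 = growth at the plate median or of vehicle wells; lower values mean less growth of the strain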; conditions: S. cerevisiae deletion strains, growth OD, locus YDR388W
Among all 5,500 compounds or so, about 2,000 (36%) were called active. Roughly 18% stayed inconclusive and do not appear here. Cut-off read from the data, not from the text of the source: active = normalized growth mostly below about 0.91 (no sharp cut-off); inconclusive = no clear call, values can overlap the other calls; inactive = mostly above about 0.92. The list shows a part of the results.
Hi there, use one of these labels in your reply, thanks! active, inactive

Below are worked cases with known answers.
>>> df
                                   compound     class
0  CC1=CC(=O)CC(C)(C)C1(O)/C=C/C(C)=C\C(=O)O (stereo unspecified)  inactive
1         NC(=O)N/N=C\c1ccc([N+](=O)[O-])o1  inactive
2  CC(=O)OC/C=C(C)/C=C/C=C(C)/C=C/C1=C(C)CCCC1(C)C  inactive
3  C#C[C@]1(O)CCC2C3CCc4cc(O)ccc4C3CC[C@@]21C (stereo partly specified)  inactive
4  Cc1cccc(CN2CCN(C(c3ccccc3)c3ccc(Cl)cc3)CC2)c1 (stereo unspecified)    active

## Input Just curious, what result did "O=C(O)c1cc(=O)c2c(OCC(O)COc3cccc4oc(C(=O)O)cc(=O)c34)cccc2o1" get here?
## Output inactive

* * *

test: chemical genetic growth profiling, strain panel (AID 1159580);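 further: tested at 20 µM; growth read once vehicle control cultures reached saturation at 30 °C; 1 = growth at the plate median or of vehicle wells; lower values mean less growth of the strain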; settings: S. cerevisiae deletion strains, growth OD, locus YER015W, strain faa2, hits give low values
Screen size: about 5,500 compounds; about 2,000 (36%) were called active. About 18% were inconclusive and are not listed. The list shows a part of the results.
normalized growth reference
Would you mind answering with just the numeric figure?

Sample answers from the record:
                                   molecule  experimental_value
0                           O=C(O)P(=O)(O)O               0.984
1  CCOC(=O)C1=C[C@]2(CC)CCCN3CCc4c(n1c1ccccc41)[C@@H]32                1.03
2  Cc1cccc(CN2CCN(C(c3ccccc3)c3ccc(Cl)cc3)CC2)c1 (centres undefined)               0.561
3                CS(=O)(=O)OCCCCOS(C)(=O)=O               0.998

## Input Suppose we examine the molecule CN(C)CCCO[C@H]1[C@@H](C(O)CO)OC2OC(C)(C)O[C@@H]21 (some centres undefined) ; what normalized growth value has been reported?
## Output 0.991

## Input Suppose we examine the molecule "COC(=O)[C@H]1[C@H]2C[C@@H]3c4[nH]c5cc(OC)ccc5c4CCN3C[C@H]2C[C@@H](OC(=O)c2cc(OC)c(OC)c(OC)c2)[C@@H]1OC" ; what normalized growth value has been reported?
## Output 0.97

## Input Suppose we examine the molecule "CCCc1cc(OC)c2c(c1)OCO2" ; what normalized growth value has been reported?
## Output 0.989

## Input Suppose we examine the molecule "O=C1O[C@@H](CO)[C@H](O)[C@@H](O)[C@@H]1O" ; what normalized growth value has been reported?
## Output 1.02

## Input Suppose we examine the molecule C[C@]12CCC3c4ccc(OS(=O)(=O)O)cc4CCC3C1CCC2=O (some centres undefined) ; what normalized growth value has been reported?
## Output 0.993
